Target: Muscarinic acetylcholine receptor M4 (Homo sapiens) (UniProt P08173)
Sequence (P08173 whole entry, looked up): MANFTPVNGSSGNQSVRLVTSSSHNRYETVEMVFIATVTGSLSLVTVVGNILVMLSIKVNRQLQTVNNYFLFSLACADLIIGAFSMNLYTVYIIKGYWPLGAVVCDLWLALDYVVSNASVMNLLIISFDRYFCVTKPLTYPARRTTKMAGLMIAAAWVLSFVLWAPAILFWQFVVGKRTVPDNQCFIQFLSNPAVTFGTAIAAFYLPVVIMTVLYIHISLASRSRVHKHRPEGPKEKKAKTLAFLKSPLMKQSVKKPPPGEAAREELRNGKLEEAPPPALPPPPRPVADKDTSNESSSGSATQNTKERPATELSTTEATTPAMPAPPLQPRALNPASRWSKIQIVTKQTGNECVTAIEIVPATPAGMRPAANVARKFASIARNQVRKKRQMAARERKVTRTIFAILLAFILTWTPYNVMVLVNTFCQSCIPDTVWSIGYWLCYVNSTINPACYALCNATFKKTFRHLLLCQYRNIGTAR
Assay: M4-linked GIRK flux change, two-sided – cell-based, HEK293 M4/GIRK, thallium flux, BTC-AM, M4 allosteric agonist project, primary screen (AID 625);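 note: thallium influx through GIRK channels coupled to M4 in HEK293 cells with BTC-AM dye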
Settings: at 10 µM, actives lie on both sides
Threshold 0.006: fluorescence slope strictly smaller gives condition met, otherwise condition not met.

Take the compound `COC(=O)Nc1ccc(S(=O)(=O)N(C)CC(F)(F)C(F)F)cc1` and say whether its fluorescence slope is less than 0.006. condition met

Take the compound `CCOC(=O)C1CCN(C(=O)c2ccc(OC)cc2OC)CC1` and say whether its fluorescence slope is less than 0.006. condition met

Take the compound CC(C(=O)NC1CCCCCC1)N(c1ccccc1)S(C)(=O)=O (stereo unspecified) and say whether its fluorescence slope is less than 0.006. condition met

Take the compound `CCCN(CCC)S(=O)(=O)c1ccc(C(=O)Nc2nnc(-c3cccc(OC)c3)o2)cc1` and say whether its fluorescence slope is less than 0.006. condition not met
